assay: Freeze–thaw stability of QC samples (−20 °C, three times); assay type: physicochemical, rat; conditions: plasma QC, spiked 300 ng/mL, freeze (−20 °C) and thaw three times
Binary call on Freeze–thaw stability Mean with cut-off 90%: strictly below means satisfied, and equality or higher means not satisfied.

- compound: "COc1cc(O)c2c(=O)cc(-c3ccccc3)oc2c1OC [Analyte 19, 7-O-methylwogonin]"
  cat: "not satisfied"
- compound: "C=C1CC[C@@H]2[C@](C)(CO)CCC[C@@]2(C)[C@@H]1CCC1=CCOC1=O [Analyte 17, andrograpanin]"
  cat: "satisfied"
- compound: "C=C1CC[C@@H]2[C@](C)(CO)[C@H](O)CC[C@@]2(C)[C@@H]1/C=C/C1=CCOC1=O [Analyte 15, 14-deoxy-11,12-didehydro-andrographolide]"
  cat: "not satisfied"
- compound: "C=C1CC[C@@H]2[C@](C)(CO)[C@H](O)CC[C@@]2(C)[C@@H]1C/C=C1/C(=O)OC[C@H]1O [Analyte 12, andrographolide]"
  cat: "satisfied"
- compound: "C=C1CC[C@@H]2[C@](C)(CO[C@@H]3O[C@H](CO)[C@@H](O)[C@H](O)[C@H]3O)CCC[C@@]2(C)[C@@H]1CCC1=CCOC1=O [Analyte 5, neoandrographolide]"
  cat: "satisfied"
- compound: "COc1cc(/C=C/C(=O)O)ccc1O [Analyte 6, trans-ferulic acid]"
  cat: "not satisfied"

---

In this section we review reported AUC(0-inf) values for a set of compounds.
experiment: Pharmacokinetic study in rat plasma after oral administration of FKQJF extract (UFLC–MS/MS); format: in vivo, Sprague-Dawley (SD) rats; conditions: Sprague-Dawley, oral FKQJF extract, single dose 3.2 g/kg, mean ± SD

- compound: "COc1cc(O[C@@H]2O[C@H](CO)[C@@H](O)[C@H](O)[C@H]2O)cc(OC)c1OC"
  AUC(0-inf) (ng·h/mL): 115
- compound: "COc1cc(/C=C/C(=O)O)ccc1O [Analyte 6, trans-ferulic acid]"
  AUC(0-inf) (ng·h/mL): 1010
- compound: "O=c1c(-c2ccc(O)cc2)coc2cc(O[C@@H]3O[C@H](CO)[C@@H](O)[C@H](O)[C@H]3O)cc(O)c12"
  AUC(0-inf) (ng·h/mL): 550
- compound: "COC(=O)c1ccc(O)cn1 [Analyte 2, 5-hydroxypicolinic acid methyl ester]"
  AUC(0-inf) (ng·h/mL): 3110
- compound: "C=C1CC[C@@H]2[C@](C)(CO)[C@H](O)CC[C@@]2(C)[C@@H]1C/C=C1/C(=O)OC[C@H]1O [Analyte 12, andrographolide]"
  AUC(0-inf) (ng·h/mL): 480
- compound: "C=C1CC[C@@H]2[C@](C)(CO)CCC[C@@]2(C)[C@@H]1CCC1=CCOC1=O"
  AUC(0-inf) (ng·h/mL): 179
- compound: "COc1cc(O)c2c(=O)cc(-c3ccccc3)oc2c1OC"
  AUC(0-inf) (ng·h/mL): 252

---

test: Freeze–thaw stability of QC samples (−20 °C, three times); type: physicochemical, rat; settings: plasma QC, spiked 600 ng/mL, freeze (−20 °C) and thaw three times

- compound: "C=C1CC[C@@H]2[C@](C)(CO)[C@H](O)CC[C@@]2(C)[C@@H]1/C=C/C1=CCOC1=O [Analyte 15, 14-deoxy-11,12-didehydro-andrographolide]"
  Freeze–thaw stability Mean [%]: 118.41
- compound: "COc1cc(/C=C/C(=O)O)ccc1O [Analyte 6, trans-ferulic acid]"
  Freeze–thaw stability Mean [%]: 88.33
- compound: "C=C1CC[C@@H]2[C@](C)(CO)CCC[C@@]2(C)[C@@H]1CCC1=CCOC1=O"
  Freeze–thaw stability Mean [%]: 115.83
- compound: "C=C1CC[C@@H]2[C@](C)(CO[C@@H]3O[C@H](CO)[C@@H](O)[C@H](O)[C@H]3O)CCC[C@@]2(C)[C@@H]1CCC1=CCOC1=O [Analyte 5, neoandrographolide]"
  Freeze–thaw stability Mean [%]: 113.31
- compound: "C=C1CC[C@@H]2[C@](C)(CO)[C@H](O)CC[C@@]2(C)[C@@H]1C/C=C1/C(=O)OC[C@H]1O [Analyte 12, andrographolide]"
  Freeze–thaw stability Mean [%]: 93.19

---

test: Ordinary stability of QC samples (room temperature for 8 h); format: physicochemical, rat; details: plasma QC, spiked 50 ng/mL, room temperature 8 h
Answer 0.0 if Ordinary stability Mean is under 90%, and 1.0 if it is 90% or more.

- molecule: "COc1ccccc1-c1cc(=O)c2c(O)cc(OC)c(OC)c2o1 [Analyte 16, panicolin]"
  cat: 0.0
- molecule: "O=C1C[C@@H](c2ccc(O)cc2)Oc2cc(O)cc(O)c21 [Analyte 14, naringenin]"
  cat: 0.0
- molecule: "COC(=O)c1ccc(O)cn1 [Analyte 2, 5-hydroxypicolinic acid methyl ester]"
  cat: 1.0
- molecule: "O=Cc1ccc2n1C[C@@]1(C[C@H](O)[C@@H](CO)O1)OC2 [Analyte 4, 9-epi-acortatarin A]"
  cat: 1.0
- molecule: "O=C(O)c1ccccc1O [Analyte 8, salicylic acid]"
  cat: 1.0
- molecule: "COc1ccc(-c2coc3cc(O[C@@H]4O[C@H](CO)[C@@H](O)[C@H](O)[C@H]4O)ccc3c2=O)cc1 [Analyte 10, ononin]"
  cat: 1.0
- molecule: "COc1cc(O[C@@H]2O[C@H](CO)[C@@H](O)[C@H](O)[C@H]2O)cc(OC)c1OC [Analyte 1]"
  cat: 0.0
- molecule: "O=c1c(-c2ccc(O)cc2)coc2cc(O[C@@H]3O[C@H](CO)[C@@H](O)[C@H](O)[C@H]3O)cc(O)c12 [Analyte 7, genistin]"
  cat: 1.0
- molecule: "O=Cc1ccc2n1C[C@]1(C[C@H](O)[C@@H](CO)O1)OC2 [Analyte 3, acortatarin A]"
  cat: 1.0

---

experiment: Pharmacokinetic study in rat plasma after oral administration of FKQJF extract (UFLC–MS/MS); assay type: in vivo, Sprague-Dawley (SD) rats; settings: Sprague-Dawley, oral FKQJF extract, single dose 3.2 g/kg, mean ± SD
Definition: the class of an entry is the range in LOW (below 200 ng·h/mL), MID (200 ng·h/mL to below 500 ng·h/mL), HIGH (500 ng·h/mL or more) that contains its AUC(0-t).

- compound: "O=C(O)c1ccccc1O"
  cat: "HIGH"
- compound: "O=c1c(-c2ccc(O)cc2)coc2cc(O[C@@H]3O[C@H](CO)[C@@H](O)[C@H](O)[C@H]3O)cc(O)c12"
  cat: "MID"
- compound: "C=C1CC[C@@H]2[C@](C)(CO)[C@H](O)CC[C@@]2(C)[C@@H]1/C=C/C1=CCOC1=O [Analyte 15, 14-deoxy-11,12-didehydro-andrographolide]"
  cat: "LOW"
- compound: "CCC/C=C1\\OC(=O)C2=C1CCC=C2 [Analyte 18, Z-ligustilide]"
  cat: "LOW"
- compound: "COc1cc(O)c2c(=O)cc(-c3ccccc3)oc2c1OC"
  cat: "MID"
- compound: "COc1cc2c(cc1O)CC[n+]1cc3c(OC)c(OC)ccc3cc1-2"
  cat: "HIGH"
- compound: "C=C1CC[C@@H]2[C@](C)(CO)[C@H](O)CC[C@@]2(C)[C@@H]1C/C=C1/C(=O)OC[C@H]1O [Analyte 12, andrographolide]"
  cat: "MID"
- compound: "COc1cc(/C=C/C(=O)O)ccc1O [Analyte 6, trans-ferulic acid]"
  cat: "MID"
- compound: "COC(=O)c1ccc(O)cn1 [Analyte 2, 5-hydroxypicolinic acid methyl ester]"
  cat: "HIGH"
- compound: "C=C1CC[C@@H]2[C@](C)(CO[C@@H]3O[C@H](CO)[C@@H](O)[C@H](O)[C@H]3O)CCC[C@@]2(C)[C@@H]1CCC1=CCOC1=O [Analyte 5, neoandrographolide]"
  cat: "MID"
- compound: "C=C1CC[C@@H]2[C@](C)(CO)CCC[C@@]2(C)[C@@H]1CCC1=CCOC1=O"
  cat: "LOW"
- compound: "COc1ccc(-c2coc3cc(O[C@@H]4O[C@H](CO)[C@@H](O)[C@H](O)[C@H]4O)ccc3c2=O)cc1"
  cat: "MID"
- compound: "COc1cc2c(cc1OC)-c1cc3ccc(OC)c(OC)c3c[n+]1CC2"
  cat: "HIGH"
- compound: "O=Cc1ccc2n1C[C@]1(C[C@H](O)[C@@H](CO)O1)OC2"
  cat: "MID"
- compound: "O=C1C[C@@H](c2ccc(O)cc2)Oc2cc(O)cc(O)c21"
  cat: "LOW"

---

assay: Long-term stability of QC samples (−20 °C for 20 days); assay type: physicochemical, rat; details: plasma QC, spiked 60 ng/mL
experimental-readout: Long-term stability Mean (%)

- compound: "C=C1CC[C@@H]2[C@](C)(CO)[C@H](O)CC[C@@]2(C)[C@@H]1C/C=C1/C(=O)OC[C@H]1O [Analyte 12, andrographolide]"
  experimental-readout: "Long-term stability Mean"
  measured-number: 115.89
- compound: "C=C1CC[C@@H]2[C@](C)(CO)[C@H](O)CC[C@@]2(C)[C@@H]1/C=C/C1=CCOC1=O [Analyte 15, 14-deoxy-11,12-didehydro-andrographolide]"
  experimental-readout: "Long-term stability Mean"
  measured-number: 100.55
- compound: "C=C1CC[C@@H]2[C@](C)(CO)CCC[C@@]2(C)[C@@H]1CCC1=CCOC1=O [Analyte 17, andrograpanin]"
  experimental-readout: "Long-term stability Mean"
  measured-number: 87.43
- compound: "COc1cc(/C=C/C(=O)O)ccc1O [Analyte 6, trans-ferulic acid]"
  experimental-readout: "Long-term stability Mean"
  measured-number: 83.07
- compound: "C=C1CC[C@@H]2[C@](C)(CO[C@@H]3O[C@H](CO)[C@@H](O)[C@H](O)[C@H]3O)CCC[C@@]2(C)[C@@H]1CCC1=CCOC1=O [Analyte 5, neoandrographolide]"
  experimental-readout: "Long-term stability Mean"
  measured-number: 113.28
